# Tested system: Nav1.7 (or SCN9A) channel; HEK cells stably transfected with hSCN9A (Homo sapiens, UniProt Q15858)
# Construct: expressed in transfected cells
# Sequence (Q15858 whole entry): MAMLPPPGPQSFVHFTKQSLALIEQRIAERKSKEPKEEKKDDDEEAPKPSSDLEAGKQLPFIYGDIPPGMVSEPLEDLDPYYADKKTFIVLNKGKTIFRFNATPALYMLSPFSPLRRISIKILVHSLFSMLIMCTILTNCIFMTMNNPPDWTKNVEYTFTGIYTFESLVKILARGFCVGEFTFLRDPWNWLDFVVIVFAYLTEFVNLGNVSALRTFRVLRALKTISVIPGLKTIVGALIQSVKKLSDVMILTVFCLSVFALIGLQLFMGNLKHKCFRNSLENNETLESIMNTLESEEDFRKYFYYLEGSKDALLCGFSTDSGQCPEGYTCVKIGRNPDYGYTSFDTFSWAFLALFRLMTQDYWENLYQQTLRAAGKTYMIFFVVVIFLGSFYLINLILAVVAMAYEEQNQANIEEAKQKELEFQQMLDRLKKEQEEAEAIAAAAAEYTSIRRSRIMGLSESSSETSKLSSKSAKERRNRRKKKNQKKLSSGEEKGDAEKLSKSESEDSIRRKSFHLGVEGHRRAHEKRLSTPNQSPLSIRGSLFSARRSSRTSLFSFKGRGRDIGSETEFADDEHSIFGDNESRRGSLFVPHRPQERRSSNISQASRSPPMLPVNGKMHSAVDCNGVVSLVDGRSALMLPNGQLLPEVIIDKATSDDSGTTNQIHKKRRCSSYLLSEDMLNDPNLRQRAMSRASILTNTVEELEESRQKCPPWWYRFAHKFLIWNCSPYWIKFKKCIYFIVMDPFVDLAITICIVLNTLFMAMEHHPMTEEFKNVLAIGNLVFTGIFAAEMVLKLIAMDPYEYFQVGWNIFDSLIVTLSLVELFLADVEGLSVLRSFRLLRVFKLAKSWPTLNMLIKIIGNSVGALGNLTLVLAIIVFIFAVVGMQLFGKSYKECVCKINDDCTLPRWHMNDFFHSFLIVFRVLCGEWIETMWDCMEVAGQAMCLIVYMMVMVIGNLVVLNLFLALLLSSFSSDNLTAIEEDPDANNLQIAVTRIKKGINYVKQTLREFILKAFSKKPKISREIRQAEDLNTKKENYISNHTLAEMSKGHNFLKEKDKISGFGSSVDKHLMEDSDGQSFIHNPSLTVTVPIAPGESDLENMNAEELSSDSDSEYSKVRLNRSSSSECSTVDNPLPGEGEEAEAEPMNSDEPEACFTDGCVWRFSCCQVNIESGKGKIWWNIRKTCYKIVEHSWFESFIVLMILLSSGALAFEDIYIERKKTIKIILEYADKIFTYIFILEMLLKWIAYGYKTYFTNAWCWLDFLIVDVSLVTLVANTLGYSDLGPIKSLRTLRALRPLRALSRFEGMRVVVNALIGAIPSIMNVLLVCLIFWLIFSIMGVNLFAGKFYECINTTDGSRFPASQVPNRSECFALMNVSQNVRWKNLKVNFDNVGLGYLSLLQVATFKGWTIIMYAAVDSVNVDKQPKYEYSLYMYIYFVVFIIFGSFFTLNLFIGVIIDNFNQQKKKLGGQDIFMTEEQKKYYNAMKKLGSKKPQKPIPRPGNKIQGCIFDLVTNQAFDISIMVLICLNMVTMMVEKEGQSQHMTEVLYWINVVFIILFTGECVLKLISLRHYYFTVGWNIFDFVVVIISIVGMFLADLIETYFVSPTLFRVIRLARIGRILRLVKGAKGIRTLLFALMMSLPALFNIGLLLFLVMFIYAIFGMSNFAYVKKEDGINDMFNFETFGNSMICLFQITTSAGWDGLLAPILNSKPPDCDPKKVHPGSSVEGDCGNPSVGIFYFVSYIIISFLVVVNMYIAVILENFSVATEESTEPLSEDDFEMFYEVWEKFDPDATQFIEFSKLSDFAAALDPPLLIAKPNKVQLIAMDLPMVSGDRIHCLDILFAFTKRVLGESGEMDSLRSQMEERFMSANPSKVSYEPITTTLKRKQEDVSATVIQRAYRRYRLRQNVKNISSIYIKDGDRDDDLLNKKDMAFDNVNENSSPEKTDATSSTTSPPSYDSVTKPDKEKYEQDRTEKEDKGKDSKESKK
# Measurement protocol: Nav1.7 block, PatchXpress 7000 automated whole-cell voltage clamp, estimated IC50 (EIC50)
# Type: cell-based
# Condition parameters: estimated IC50; hSCN9A HEK cells, PatchXpress platform; Examples 815-1040
Endpoint label: IC50 (nM)

Sample answers from the record:
{"Compound": "CC(C)(C#N)c1ccc(Oc2cc(F)c(S(=O)(=O)Nc3nncs3)cc2Cl)c(-c2ccnnc2)c1 [Example 1021]", "Endpoint label": "IC50", "Observed result": 1300}
{"Compound": "CSc1nnc(NS(=O)(=O)c2ccc(Oc3ccc(Cl)cc3-c3ccnn3C)c(C#N)c2)s1 [Example 891]", "Endpoint label": "IC50", "Observed result": 780}

I = O=S(=O)(Nc1cscn1)c1ccc(Oc2ccc(Cl)cc2-c2ccn[nH]2)c(Cl)c1 [Example 911]
II = Cc1[nH]ncc1-c1cc(Cl)ccc1Oc1ccc(S(=O)(=O)Nc2ncns2)cc1C#N [Example 865]
Given the listed items, does I or II have the lesser reported IC50? Respond with the label that goes with your answer. II
(II: 4.4 nM, I: 170 nM)

a = CN1CC(n2nccc2-c2cc(Cl)ccc2Oc2cc(F)c(S(=O)(=O)Nc3nncs3)cc2Cl)C1 [Example 884]
b = N#Cc1cc(S(=O)(=O)Nc2ncns2)ccc1Oc1ccc(F)cc1-c1cc(N)n[nH]1 [Example 826]
c = O=S(=O)(Nc1ncccn1)c1cc(Cl)c(Oc2ccc(OC(F)(F)F)cc2-c2ccnnc2)cc1F [Example 945]
Order by IC50, ascending. Return value: ordered labels per request. a, c, b
(a: 36 nM, c: 99 nM, b: 300 nM)
